- Tested on: Mtb CF 184 (mono-resistant to isoniazid)
- Type: cell-based, Mycobacterium tuberculosis
- condition-summary: Mono INH clinical isolate; REMA, 7 days
metric: CIM90 CF 184

mol-smiles	tested-on	metric	observed
O=C(Nc1ccc(N2CCN(c3ccccn3)CC2)c(F)c1)c1ccc2no[n+]([O-])c2c1	Mtb CF 184 (mono-resistant to isoniazid)	CIM90 CF 184	0,96 ± 1,04 μM
CO[C@H]1/C=C/O[C@@]2(C)Oc3c(C)c(O)c4c(O)c(c(/C=N/N5CCN(C)CC5)c(O)c4c3C2=O)NC(=O)/C(C)=C\C=C\[C@H](C)[C@H](O)[C@@H](C)[C@@H](O)[C@@H](C)[C@H](OC(C)=O)[C@@H]1C	Mtb CF 184 (mono-resistant to isoniazid)	CIM90 CF 184	0,05 ± 0,01 μM
O=C(Nc1ccc(N2CCSCC2)c(F)c1)c1ccc2no[n+]([O-])c2c1	Mtb CF 184 (mono-resistant to isoniazid)	CIM90 CF 184	0,37 ± 0,15 μM
NNC(=O)c1ccncc1	Mtb CF 184 (mono-resistant to isoniazid)	CIM90 CF 184	> 182,30 μM
NCC[C@H](O)C(=O)N[C@@H]1C[C@H](N)[C@@H](O[C@H]2O[C@H](CN)[C@@H](O)[C@H](O)[C@H]2O)[C@H](O)[C@H]1O[C@H]1O[C@H](CO)[C@@H](O)[C@H](N)[C@H]1O	Mtb CF 184 (mono-resistant to isoniazid)	CIM90 CF 184	0,24 ± 0,00 μM
